# measurementNotes: AUC in Sprague-Dawley rat plasma at 5 mg/kg, po
# Assay type: ADME, organism-based
# Set-up: dose 5 mg/kg, route oral
parameterMeasured: AUC (µM·h)
Could you give me the number in µM·h? Just the number is fine.

GET /value?item= O=C(O)/C=C/c1ccc(NC(=O)C2(NC(=O)c3ccc4c(c3)nc(-c3ccccn3)n4C3CCCCC3)CCCC2)cc1 &field=AUC returns 0.51

====

# Test system: Hepatitis C virus
# measurementNotes: Inhibition of HCV 1b NS5Bdelta21 polymerase assessed as [3H]UTP incorporated into the biotinylated primer after 90 mins by scintillation counting
# Type: functional, Hepatitis C virus subtype 1b
parameterMeasured: pIC50
API: returns pIC50 as number; meaning -log10 of concentration in mol/L.

These recorded examples may help you get a feel for the data.
O=C(N[C@@H](Cc1c[nH]c2ccc(O)cc12)C(=O)O)c1ccc2c(c1)nc(-c1cccs1)n2C1CCCCC1    7.10
Cn1cccc1-c1nc2cc(C(=O)N[C@@H](Cc3c[nH]c4ccc(O)cc34)C(=O)O)ccc2n1C1CCCCC1    7.22
O=C(O)/C=C/c1ccc(NC(=O)C2(NC(=O)c3ccc4c(c3)nc(-c3cccs3)n4C3CCCCC3)CCC2)cc1    6.96
O=C(N[C@@H](Cc1c[nH]c2ccc(O)cc12)C(=O)O)c1ccc2c(c1)nc(-c1ccco1)n2C1CCCCC1    7.10
O=C(N[C@@H](Cc1c[nH]c2ccc(O)cc12)c1cscn1)c1ccc2c(c1)nc(-c1ccoc1)n2C1CCCCC1    6.66

GET /value?item= O=C(O)/C=C/c1ccc(NC(=O)C2(NC(=O)c3ccc4c(c3)nc(-c3ccsc3)n4C3CCCCC3)CCC2)cc1 &field=pIC50 returns 6.92

GET /value?item= Cn1cccc1-c1nc2cc(C(=O)N[C@@H](Cc3c[nH]c4ccc(O)cc34)c3cscn3)ccc2n1C1CCCCC1 &field=pIC50 returns 6.14

GET /value?item= O=C(N[C@@H](Cc1c[nH]c2ccc(O)cc12)C(=O)O)c1ccc2c(c1)nc(-c1ccsc1)n2C1CCCCC1 &field=pIC50 returns 6.80

====

# measurementNotes: Half life in human liver microsomes at 10 uM
# Assay type: ADME, Microsome
# appliedConditions: liver microsomes
parameterMeasured: half-life at 10 µM (h)
Could you give me the number in h? Just the number is fine.

O=C(O)/C=C/c1ccc(NC(=O)C2(NC(=O)c3ccc4c(c3)nc(-c3ccccn3)n4C3CCCCC3)CCCC2)cc1    1.12

GET /value?item= O=C(O)/C=C/c1ccc(NC(=O)C2(NC(=O)c3ccc4c(c3)nc(-c3ccoc3)n4C3CCCCC3)CCCC2)cc1 &field=half-life at 10 µM returns 1.28

====

# measurementNotes: Half life in rat liver microsomes at 10 uM
# Format: ADME, Microsome
Each entry below carries its recorded half-life at 10 µM.
Could you give me the number in min? Just the number is fine.

O=C(O)/C=C/c1ccc(NC(=O)C2(NC(=O)c3ccc4c(c3)nc(-c3ccccn3)n4C3CCCCC3)CCCC2)cc1    17

Now look at this entry.
GET /value?item= O=C(O)/C=C/c1ccc(NC(=O)C2(NC(=O)c3ccc4c(c3)nc(-c3ccoc3)n4C3CCCCC3)CCCC2)cc1 &field=half-life at 10 µM returns 54

====

# System: Hepatitis C virus
# measurementNotes: Inhibition of HCV 1b NS5Bdelta21 polymerase assessed as [3H]UTP incorporated into the biotinylated primer after 90 mins by scintillation counting
# Type: functional, Hepatitis C virus subtype 1b
Each entry below carries its recorded pIC50.
API: returns pIC50 as number; meaning -log10 of concentration in mol/L.

These recorded examples may help you get a feel for the data.
O=C(N[C@@H](Cc1c[nH]c2ccc(O)cc12)c1cscn1)c1ccc2c(c1)nc(-c1ccsc1)n2C1CCCCC1    6.28
O=C(N[C@@H](Cc1c[nH]c2ccc(O)cc12)C(=O)O)c1ccc2c(c1)nc(-c1ccoc1)n2C1CCCCC1    7.52
O=C(N[C@@H](Cc1c[nH]c2ccc(O)cc12)c1cscn1)c1ccc2c(c1)nc(-c1ccco1)n2C1CCCCC1    6.57
O=C(N[C@@H](Cc1c[nH]c2ccc(O)cc12)C(=O)O)c1ccc2c(c1)nc(-c1ccccc1)n2C1CCCCC1    6.64
O=C(O)/C=C/c1ccc(NC(=O)C2(NC(=O)c3ccc4c(c3)nc(-c3ccoc3)n4C3CCCCC3)CCC2)cc1    7.30

GET /value?item= O=C(N[C@@H](Cc1c[nH]c2ccc(O)cc12)C(=O)O)c1ccc2c(c1)nc(-c1ccccn1)n2C1CCCCC1 &field=pIC50 returns 6.85

GET /value?item= Cn1cccc1-c1nc2cc(C(=O)NC3(C(=O)Nc4ccc(/C=C/C(=O)O)cc4)CCC3)ccc2n1C1CCCCC1 &field=pIC50 returns 7.05

GET /value?item= O=C(O)/C=C/c1ccc(NC(=O)C2(NC(=O)c3ccc4c(c3)nc(-c3ccccc3)n4C3CCCCC3)CCC2)cc1 &field=pIC50 returns 6.70

====

# measurementNotes: Permeability across human Caco-2 cells
# Format: ADME, cell-based
# appliedConditions: read-out: permeability
parameterMeasured: Papp (×10⁻⁶ cm/s)
Could you give me the number in ×10⁻⁶ cm/s? Just the number is fine.

O=C(O)/C=C/c1ccc(NC(=O)C2(NC(=O)c3ccc4c(c3)nc(-c3ccoc3)n4C3CCCCC3)CCCC2)cc1    3.9

Now look at this entry.
GET /value?item= O=C(O)/C=C/c1ccc(NC(=O)C2(NC(=O)c3ccc4c(c3)nc(-c3ccccn3)n4C3CCCCC3)CCCC2)cc1 &field=Papp returns 9.5

====

# measurementNotes: Solubility in phosphate buffer at pH 7.2 after 24 hrs by shake flask method
# Assay type: physicochemical
parameterMeasured: solubility thermodynamic at 24 h (µg/mL)
Could you give me the number in µg/mL? Just the number is fine.

O=C(O)/C=C/c1ccc(NC(=O)C2(NC(=O)c3ccc4c(c3)nc(-c3ccoc3)n4C3CCCCC3)CCCC2)cc1    125

Now look at this entry.
GET /value?item= O=C(O)/C=C/c1ccc(NC(=O)C2(NC(=O)c3ccc4c(c3)nc(-c3ccccn3)n4C3CCCCC3)CCCC2)cc1 &field=solubility thermodynamic at 24 h returns 100

====

# measurementNotes: Cmax in Sprague-Dawley rat plasma at 5 mg/kg, po
# Format: ADME, organism-based
# Set-up: dose 5 mg/kg, route oral
parameterMeasured: Cmax (nM)
Could you give me the number in nM? Just the number is fine.

GET /value?item= O=C(O)/C=C/c1ccc(NC(=O)C2(NC(=O)c3ccc4c(c3)nc(-c3ccccn3)n4C3CCCCC3)CCCC2)cc1 &field=Cmax returns 580

====

# Tested on: Hepatitis C virus
# measurementNotes: Inhibition of HCV 1b NS5Bdelta21 polymerase assessed as [3H]UTP incorporated into the biotinylated primer after 90 mins by scintillation counting
# Type: functional, Hepatitis C virus subtype 1b
# note: exactly 400 nM is not below, so it is label 0; use label 1 for IC50 strictly under it

Before answering, review these 4 worked examples.
O=C(N[C@@H](Cc1c[nH]c2ccc(O)cc12)c1cscn1)c1ccc2c(c1)nc(-c1ccccn1)n2C1CCCCC1    label 0
O=C(O)/C=C/c1ccc(NC(=O)C2(NC(=O)c3ccc4c(c3)nc(-c3ccco3)n4C3CCCCC3)CCC2)cc1    label 1
O=C(O)/C=C/c1ccc(NC(=O)C2(NC(=O)c3ccc4c(c3)nc(-c3ccccn3)n4C3CCCCC3)CCC2)cc1    label 1
O=C(N[C@@H](Cc1c[nH]c2ccc(O)cc12)c1cscn1)c1ccc2c(c1)nc(-c1cccs1)n2C1CCCCC1    label 0

Moving on to another compound below.
Q. Could you please tell me whether IC50 recorded for O=C(N[C@@H](Cc1c[nH]c2ccc(O)cc12)c1cscn1)c1ccc2c(c1)nc(-c1ccccc1)n2C1CCCCC1 is less than 400 nM?
A. label 0

====

# measurementNotes: Mean residence time in Sprague-Dawley rat plasma at 5 mg/kg, po
# Assay type: ADME, organism-based
# Design: dose 5 mg/kg, route oral
parameterMeasured: MRT

GET /value?item= O=C(O)/C=C/c1ccc(NC(=O)C2(NC(=O)c3ccc4c(c3)nc(-c3ccccn3)n4C3CCCCC3)CCCC2)cc1 &field=MRT returns 44.4 min

====

# measurementNotes: Tmax in Sprague-Dawley rat plasma at 5 mg/kg, po
# Assay type: ADME, organism-based
# Set-up: dose 5 mg/kg, route oral
parameterMeasured: Tmax (min)
Could you give me the number in min? Just the number is fine.

GET /value?item= O=C(O)/C=C/c1ccc(NC(=O)C2(NC(=O)c3ccc4c(c3)nc(-c3ccccn3)n4C3CCCCC3)CCCC2)cc1 &field=Tmax returns 30

====

# measuredTarget: Cytochrome P450 3A4 (Homo sapiens)
# Sequence (P08684 whole entry): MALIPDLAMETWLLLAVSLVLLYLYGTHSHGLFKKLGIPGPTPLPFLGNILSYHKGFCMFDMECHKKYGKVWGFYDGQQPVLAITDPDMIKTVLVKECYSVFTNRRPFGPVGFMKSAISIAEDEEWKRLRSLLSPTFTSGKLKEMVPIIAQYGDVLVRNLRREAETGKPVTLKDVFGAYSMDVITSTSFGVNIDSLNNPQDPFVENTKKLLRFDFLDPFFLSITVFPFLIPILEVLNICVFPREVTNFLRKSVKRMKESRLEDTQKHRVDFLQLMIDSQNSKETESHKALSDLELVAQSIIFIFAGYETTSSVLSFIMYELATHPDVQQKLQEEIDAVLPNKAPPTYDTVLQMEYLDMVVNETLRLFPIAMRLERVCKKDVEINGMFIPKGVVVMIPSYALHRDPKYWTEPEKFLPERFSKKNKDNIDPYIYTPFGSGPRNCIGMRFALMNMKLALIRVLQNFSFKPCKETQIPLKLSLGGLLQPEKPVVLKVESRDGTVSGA
parameterMeasured: pIC50
API: returns pIC50 as number; meaning -log10 of concentration in mol/L.

The value of pIC50 recorded for O=C(N[C@@H](Cc1c[nH]c2ccc(O)cc12)c1cscn1)c1ccc2c(c1)nc(-c1ccoc1)n2C1CCCCC1 when tested on Cytochrome P450 3A4 (Homo sapiens) reads 6.36
